B1: library; numbered along this chain (parent)
chain: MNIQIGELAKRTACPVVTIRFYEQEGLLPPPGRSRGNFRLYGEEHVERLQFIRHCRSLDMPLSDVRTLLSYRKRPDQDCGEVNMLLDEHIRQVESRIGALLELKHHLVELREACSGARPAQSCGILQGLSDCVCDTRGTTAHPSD

Variants of: B1
Protocol Text: sfGFP reporter fluorescence (15 h) (µM FITC); higher = stronger transcriptional activation
Details: library round: Round 0; ligand: 30 µM Zn
Kindly state sfGFP reporter fluorescence for each of the entries shown.

Here are 3 variants together with their reported answers.
1. MNIQIGELAKRTACPVVTIRFYEQEGLLPPPGRSRGNFRLYGEEHVERLQFIRHCRSLDMPLSDVRTLLSYRKRPDQDCGEVNMLLDEHIRQVESRIGALLELNHHLVELREACSGARPAQSCGILQGLSDCVCDTRGTTAHPSD [K104N] : 0.879
2. MNIQIGELAKRTACPVVTIRFYEQEGLLPPPGRSRGNFRLYGEEHVERLQFIRHCRSLDMPLSDVRTLLSYRKRPDQDCGEVNMLLDEHIRQVESRIGALLELKHHLVELREACSGARPAQSCGILQGLSVCVCDTRGTTAHPSD [D131V] : 0.984
3. MNIQIGELAKRTACPVVTIRFYEQEGLLPPPGRSRGNFRLYGEEHVERLQFIRHCRSLDMPLSDVRTLLSYRKRPDQDCGEVNMLLDEMIRQVESRIGALLELKHHLVELREACSGARPAQSCGILQGLSDCVCDTRGTTAHPSD [H89M] : 0.143

Batch request: sfGFP reporter fluorescence for each of the following variants.
1. MNVQIGELAKRTACPVVTIRFYEQEGLLPPPGRSRGNFRLYGEEHVERLQFIRHCRSLDMPLSDVRTLLSYRKRPDQDCGEVNMLLDEHIRQVESRIGALLELKHHLVELREACSGARPAQSCGILQGLSDCVCDTRGTTAHPSD [I3V]
2. MNIQIGELAKRTACPVVTIRFYEQEGLLPPPGRSRGNFRLYGEEHVERLQFIRHCRSLDMPLSDVRTLLSYRKRPDQDCGERNMLLDEHIRQVESRIGALLELKHHLVELREACSGARPAQSCGILQGLSDCVCDTRGTTAHPSD [V82R]
3. MNIQIGELAKRTACPVVTIRFYEQEGLLPPPGRSRGNFRLYGEEHVERLQFIRHCRSLDMPLSDVRTLLSYRKRPDQDVGEVNMLLDEHIRQVESRIGALLELKHHLVELREACSGARPAQSCGILQGLSDCVCDTRGTTAHPSD [C79V]
4. MNIQIGELAKRTACPVVTIRFYEQEGLLPPPGRSRGNFRLYGEEHVERLQFIRHCRSLDMPLSDVRTLLSYRKRPDQDCGEVNMLLDEHIRQVESRYGALLELKHHLVELREACSGARPAQSCGILQGLSDCVCDTRGTTAHPSD [I97Y]
5. MNIQIGELAKRTACPVVTIRFYEQEGLLPPPGRSRGNFRLYGEEHVERLQFIRHCRSLDMPLSDVRTLLSYRKRPDQDCGEVNMLLDEHIRQVESRIGALLELKHHLVELREACSGARPAQSCGILQGLSLCVCDTRGTTAHPSD [D131L]
6. MNIQIGELAKRTACPVVTIRFYEQEGLLPPPGRSRGNFRLYGEEHVERLQFIRHCRSLDMALSDVRTLLSYRKRPDQDCGEVNMLLDEHIRQVESRIGALLELKHHLVELREACSGARPAQSCGILQGLSDCVCDTRGTTAHPSD [P61A]

[1.32, 0.0568, 0.0555, 0.721, 0.994, 1.22]

Batch request: sfGFP reporter fluorescence for each of the following variants.
1. MNIQIGELAKRTACPVVTIRFYEQEGLLPPPGRSRGNFRLYGEEHVERLQFIRHCRSLDMPLSDVRTLLSYRKRPDQDCGEVNMLLDEHIRQVESRCGALLELKHHLVELREACSGARPAQSCGILQGLSDCVCDTRGTTAHPSD [I97C]
2. MNYQIGELAKRTACPVVTIRFYEQEGLLPPPGRSRGNFRLYGEEHVERLQFIRHCRSLDMPLSDVRTLLSYRKRPDQDCGEVNMLLDEHIRQVESRIGALLELKHHLVELREACSGARPAQSCGILQGLSDCVCDTRGTTAHPSD [I3Y]
3. MNIQIGELAKRTACPMVTIRFYEQEGLLPPPGRSRGNFRLYGEEHVERLQFIRHCRSLDMPLSDVRTLLSYRKRPDQDCGEVNMLLDEHIRQVESRIGALLELKHHLVELREACSGARPAQSCGILQGLSDCVCDTRGTTAHPSD [V16M]
4. MNIQIGELAKRTACPVVTIRFYEQEGLLPPPGRSRGNFRLYGEEHVERLQFIRHCRSLDMPLSDVRTLLSYRKRPDQDCGEVNMLLDEHIRQVESRIGALLELKHHLVELREACSGARPAQSCGILQGLSDCVIDTRGTTAHPSD [C134I]
5. MNIQIGELAKRTACPVVTIRFYEQEGLLPPPGRSRGNFRLYGPEHVERLQFIRHCRSLDMPLSDVRTLLSYRKRPDQDCGEVNMLLDEHIRQVESRIGALLELKHHLVELREACSGARPAQSCGILQGLSDCVCDTRGTTAHPSD [E43P]
6. MNIQIGELAKRTACPVVTIRFYEQEGLLPPPGRSRGNFRLYGEEHVERLQFIRHCRSLDMPLSDVRTLLSYRKRPDQDCGEVNMLLDEHIRQVESRIGALLELKHHLVELREACSGARPAQSCGILQYLSDCVCDTRGTTAHPSD [G128Y]

[0.761, 0.977, 0.938, 1.19, 0.719, 1.37]

Batch request: sfGFP reporter fluorescence for each of the following variants.
1. MNIQIGELAKRTACPVVTIRFYEQEGLLPPPGRSRGNFRLWGEEHVERLQFIRHCRSLDMPLSDVRTLLSYRKRPDQDCGEVNMLLDEHIRQVESRIGALLELKHHLVELREACSGARPAQSCGILQGLSDCVCDTRGTTAHPSD [Y41W]
2. MNIQIGELAKRTACPVVTIRFYEQEGLLPPPGRSRGNFRLYGEEHVERLQFIRHCRSLDMPLSDVRTLLSYRKRPDQDCGEVNMLLDEHIRQVESRIGALLELKHHLVELREACSGARPAQSCGILQGLSDCVCTTRGTTAHPSD [D135T]
3. MNIQIGELAKRTACPVVTIRFYEQEGLLPPPGRSRGNFRLYGEEHVERLQFIRHCRSHDMPLSDVRTLLSYRKRPDQDCGEVNMLLDEHIRQVESRIGALLELKHHLVELREACSGARPAQSCGILQGLSDCVCDTRGTTAHPSD [L58H]
4. MNIQIGELAKRTACPVVTIRFYEQEGLLPPPGRSRGNFRLYGEEHVERLQFIRHCRSLDMPLSDVRTLLSYRKRPDQDCGEVNMLLDEHIRQVESRIGALLELKHHLVELREACSGARPAQSCGLLQGLSDCVCDTRGTTAHPSD [I125L]
5. MNIQIGELAKRTACPVVTIRFYEQEGLLPPPGRSRGNFRLYGEEHVERLQFIRHCRSLDLNLSDVRTLLSYRKRPDQDCGEVNMLLDEHIRQVESRIGALLELKHHLVELREACSGARPAQSCGILQGLSDCVCDTRGTTAHPSD [M60L P61N]
6. MNIQIGELAKRTACPVVTIRFYEQEGLLPPPGRSRGNFRLYGEEHVERLQFIRHMRSLDMPLSDVRTLLSYRKRPDQDCGEVNMLLDEHIRQVESRIGALLELKHHLVELREACSGARPAQSCGILQGLSDCVCDTRGTTAHPSD [C55M]

0.198
1.13
0.0656
0.0555
3.5
0.139
